Recorded measurements of pIC50, one per entry
Molecular target: hSTING-WT (Homo sapiens (Human), UniProt Q86WV6, H232R)
Sequence (Q86WV6 140-379 H232R): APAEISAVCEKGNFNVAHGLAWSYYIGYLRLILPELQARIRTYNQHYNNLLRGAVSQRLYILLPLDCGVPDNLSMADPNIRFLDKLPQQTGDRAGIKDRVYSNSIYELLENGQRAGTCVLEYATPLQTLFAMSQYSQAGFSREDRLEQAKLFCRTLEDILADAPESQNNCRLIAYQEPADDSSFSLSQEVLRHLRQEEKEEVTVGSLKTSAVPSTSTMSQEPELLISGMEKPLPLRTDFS
Assay: Radiometric filtration binding competition assay, hSTING-WT
pIC50: −log10 of the molar value.

[
  {
    "COMPOUND STRUCTURE": "COc1c(Cl)ccc2c(=O)c3cc(N)c(C(C)C)cc3n(CC(=O)O)c12",
    "pIC50": "3.52 to 4.00"
  },
  {
    "COMPOUND STRUCTURE": "COc1c(Cl)ccc2c(=O)c3ccc(C)cc3n(CC(=O)NS(C)(=O)=O)c12",
    "pIC50": "3.52 to 4.00"
  },
  {
    "COMPOUND STRUCTURE": "CC(C)c1ccc2c(=O)c3ccc(Cl)c(Cl)c3n(CC(=O)NS(C)(=O)=O)c2c1",
    "pIC50": "4.00 to 4.70"
  },
  {
    "COMPOUND STRUCTURE": "COc1c(Cl)ccc2c(=O)c3ccc(Nc4ccc(F)cc4)cc3n(CC(=O)O)c12",
    "pIC50": "> 4.70"
  },
  {
    "COMPOUND STRUCTURE": "CCOc1c(Cl)ccc2c(=O)c3ccc(C(C)C)cc3n(CC(=O)O)c12",
    "pIC50": "> 4.70"
  }
]

Prompt: What measured pIC50 goes with O=C(O)Cn1c2cc(C(O)(C(F)(F)F)C(F)(F)F)ccc2c(=O)c2ccc(Cl)c(Cl)c21 ?
Response: < 3.52
